# Method notes: in vivo
# Parameters: species or system cynomolgus monkeys
# Test conditions: cynomolgus monkey, sc
Observation type: concentration at 240 h (ng/mL)
Answers are plain numbers, in ng/mL.

[ask] May I ask what concentration at 240 h has been recorded for CC(=O)[C@H]1CC[C@H]2[C@@H]3CCC4=CC(=O)CC[C@]4(C)[C@H]3CC[C@]12C [progesterone] ?
[reply] 6.4

Ref: patent EP0769956B1
